Each entry below lists one item and its recorded median seed-adjusted z-score value.
# run.description: Novel Modifiers of Survival Motor Neuron (SMN) Protein: Gene Identification via Genome-wide siRNA Screen;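 further: luminescence tracks full-length SMN protein made from the SMN2 reporter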
# applied.conditions: HEK293T SMN2-luciferase reporter, siRNA knockdown, 72 h; actives lie on both sides
In all, about 31,000 sequences went through this assay and about 1,400 (4.5%) were called active. The full list was thinned out, with actives kept by preference.

{"columns": ["biosequence", "median seed-adjusted z-score"],
 "data": [
  ["GAUCGGCACUUACACCUGUTT against OPHN1", "0.692 (inactive)"],
  ["UGGGUUGGAUGAUACCUUATT against GATA5", "0.15 (inactive)"],
  ["CAUCUUUCCUAAAGAGUUUTT against POLR2D", "-3.79 (active)"],
  ["GCUCCAACAUGGUCUACAATT against POLE", "-1.55 (active)"],
  ["CCAGCGAGCUGAUCCUCAATT against MYCN", "0.00242 (inactive)"],
  ["GGACAGAGCAAAAACUUCUTT against DYRK4", "-0.824 (inactive)"],
  ["UGACCGAUGUCUUCCUUAUTT against RHOQ", "-0.328 (inactive)"],
  ["CCGUUGCUAUGAACAAGUUTT against B4GALT3", "-0.138 (inactive)"],
  ["UGUUCAGCAUAGUUGUUUUTT against SLC12A9", "-0.0853 (inactive)"],
  ["AGGUCAACACGGAGCUCAATT against CHRM1", "1.1 (active)"],
  ["GCACCUUCGUCCUCAACUUTT against PROC", "-0.228 (inactive)"],
  ["CAUUCGCAUUCAGUCCAUATT against FRAP1", "-1.02 (active)"]
]}

###

# run.description: Novel Modifiers of Survival Motor Neuron (SMN) Protein: Gene Identification via Genome-wide siRNA Screen;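 further: luminescence tracks full-length SMN protein made from the SMN2 reporter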
# applied.conditions: HEK293T SMN2-luciferase reporter, siRNA knockdown, 72 h; actives lie on both sides
Hit rate of the full screen: of about 31,000 sequences, about 1,400 (4.5%) were called active. Many of the other results were omitted from the sample, so actives are more common in it than they were.
Field: class. Source value: median seed-adjusted z-score. Ranges: range A = under -0.5, range B = from -0.5 up to 0.2, range C = 0.2 and over

{"columns": ["biosequence", "group.label"],
 "data": [
  ["CGAAGGAAAUGUACAGCAATT against SLC25A42", "range A"],
  ["GCACUUUAGAAUCACACGATT against TRMT6", "range B"],
  ["GCUUUAUGCUGCUAAGGCATT against PGD", "range A"],
  ["CCGUAAACUUCAUAACAUUTT against DYRK1A", "range A"],
  ["GGGUCGACCUAUUUCCGAATT against DYSF", "range B"],
  ["GGAAAAAUAUCCAGCAAAATT against UBE2E2", "range A"],
  ["GGUACUUCGUGAUCCGCAUTT against NECAP2", "range A"],
  ["GCAUUGGGAUGUACUUGUATT against LRP12", "range C"],
  ["GCCUAAAUCCCAAAUCGAATT against CXCL11", "range B"],
  ["UUACUUUCCUAGUAAGCAATT against GNA12", "range C"],
  ["GAUAGAAGCAUGGAAUUGATT against MRS2", "range C"],
  ["CCAGCUGCCUACAAAGACATT against CLDN14", "range B"],
  ["GCACGAGGUUUUCACCUAUTT against SRMS", "range A"],
  ["GAGAUAACAUCAGUAGAAATT against FGF10", "range B"],
  ["ACACAGCUGUUGUACCUCATT against MAP4", "range C"],
  ["AAGUGUGCCUGAAUACUAUTT against KHDRBS2", "range B"],
  ["GGUGGUGAAUGAAGGUUCATT against HINT1", "range C"],
  ["GAGCUGGGAUGAUAAAGAUTT against AGPAT2", "range C"],
  ["CUCUUCACGUCUGACCUGATT against HTR6", "range B"],
  ["CCAACAAGCUGUCUCCCUATT against CENPB", "range C"],
  ["GGUUGUAGAGUUGAAAGUUTT against UBE2O", "range B"],
  ["AAGUUCCUAUCGGUCGUAUTT against HBZ", "range B"],
  ["GAACUUUCCUGUUACCUUUTT against CD81", "range B"],
  ["GACCCAAAGCGGCAGCAAATT against KLRC2", "range B"],
  ["CGAAUAUGAUGAAGAUGUUTT against PHF17", "range C"]
]}
